Listed next: entries and their corresponding Ki.
Tgt: hMOR-1 (Homo sapiens)
Construct: purchased Amersham Biosciences; host or cells: stably transfected CHO cells (membrane preparation)
Sequence (P35372 whole entry): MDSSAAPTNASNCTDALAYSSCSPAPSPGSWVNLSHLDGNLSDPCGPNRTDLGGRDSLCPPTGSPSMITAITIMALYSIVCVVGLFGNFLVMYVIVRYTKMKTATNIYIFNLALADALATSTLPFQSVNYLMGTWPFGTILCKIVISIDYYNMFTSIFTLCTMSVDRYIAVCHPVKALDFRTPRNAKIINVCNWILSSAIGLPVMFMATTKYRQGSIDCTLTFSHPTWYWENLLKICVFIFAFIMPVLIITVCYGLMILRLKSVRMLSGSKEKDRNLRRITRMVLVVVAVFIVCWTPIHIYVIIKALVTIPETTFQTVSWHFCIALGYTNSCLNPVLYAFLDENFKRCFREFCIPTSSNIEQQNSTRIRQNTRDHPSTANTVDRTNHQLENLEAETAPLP
Test Summary: Opioid receptor competitive binding assay, MOR (3H-DAMGO)
Setup Conditions: Ki MOR, Table 4; 3H-DAMGO, hMOR-1 stably transfected into CHO cells; errors 95% confidence interval
A number alone suffices; assume nM.

Worked cases, Ki given:
Cc1cc(O)cc(C)c1CC(N)C(O)C/C=C/C(O)C(Cc1ccccc1)C(=O)NC(Cc1ccccc1)C(N)=O (single isomer, unassigned) [(S,S,R,R)-25] : 0.42
Cc1cc(O)cc(C)c1CC(N)C(O)C/C=C/C(O)C(Cc1ccccc1)C(=O)NC(CO)Cc1ccccc1 [(S,S,S,R)-27] : 0.16

// next item, Ki requested
*Q* Query: Ki; subject: Cc1cc(O)cc(C)c1CC(N)C(O)C/C=C/C(O)C(Cc1ccccc1)C(=O)NCCc1ccccc1 (single isomer, unassigned) [(S,R,S,R)-26]
*A* 0.24
